assay details: Clearance in rat
Assay type: ADME, organism-based
recorded conditions: in vivo
assay endpoint: clearance (mL/min/kg)
Numbers only, in mL/min/kg.

Q: Bench note: what clearance did CCCCOCCOc1nc(-c2ccc(C(=O)O)c(F)c2)sc1C show?
Result: 41
